procedure text: Partition coefficient of organic co-solvents (log P 1-octanol/water)
Assign 1.0 whenever Partition Coefficient (log P1-octanol/water) does not fall below -0.4 log P1-octanol/water; assign 0.0 whenever it does.

{"columns": ["compound", "category"],
 "data": [
  ["CCCCCCCCO", 1.0]
]}

Hi team, for CC1(C)C(=O)N(CCO)C(=O)N1CCO [di-(2-hydroxyethy)-5,5-dimethylhydantoin] , is the recorded Partition Coefficient (log P1-octanol/water) at or above -0.4 log P1-octanol/water?
0.0

Hi team, for OCCOCCOCCO , is the recorded Partition Coefficient (log P1-octanol/water) at or above -0.4 log P1-octanol/water?
0.0

Hi team, for O , is the recorded Partition Coefficient (log P1-octanol/water) at or above -0.4 log P1-octanol/water?
0.0
